Collected pEC50 values appear next to each entry.
target: ΔF508-CFTR (Homo sapiens, UniProt P13569, DEL508-508); assay: Membrane potential optical (FRET/VIPR) assay, identification of potentiator compounds; conditions: Table 3; assay not given
Sequence (P13569 with tags, fused parts or gaps DEL508-508): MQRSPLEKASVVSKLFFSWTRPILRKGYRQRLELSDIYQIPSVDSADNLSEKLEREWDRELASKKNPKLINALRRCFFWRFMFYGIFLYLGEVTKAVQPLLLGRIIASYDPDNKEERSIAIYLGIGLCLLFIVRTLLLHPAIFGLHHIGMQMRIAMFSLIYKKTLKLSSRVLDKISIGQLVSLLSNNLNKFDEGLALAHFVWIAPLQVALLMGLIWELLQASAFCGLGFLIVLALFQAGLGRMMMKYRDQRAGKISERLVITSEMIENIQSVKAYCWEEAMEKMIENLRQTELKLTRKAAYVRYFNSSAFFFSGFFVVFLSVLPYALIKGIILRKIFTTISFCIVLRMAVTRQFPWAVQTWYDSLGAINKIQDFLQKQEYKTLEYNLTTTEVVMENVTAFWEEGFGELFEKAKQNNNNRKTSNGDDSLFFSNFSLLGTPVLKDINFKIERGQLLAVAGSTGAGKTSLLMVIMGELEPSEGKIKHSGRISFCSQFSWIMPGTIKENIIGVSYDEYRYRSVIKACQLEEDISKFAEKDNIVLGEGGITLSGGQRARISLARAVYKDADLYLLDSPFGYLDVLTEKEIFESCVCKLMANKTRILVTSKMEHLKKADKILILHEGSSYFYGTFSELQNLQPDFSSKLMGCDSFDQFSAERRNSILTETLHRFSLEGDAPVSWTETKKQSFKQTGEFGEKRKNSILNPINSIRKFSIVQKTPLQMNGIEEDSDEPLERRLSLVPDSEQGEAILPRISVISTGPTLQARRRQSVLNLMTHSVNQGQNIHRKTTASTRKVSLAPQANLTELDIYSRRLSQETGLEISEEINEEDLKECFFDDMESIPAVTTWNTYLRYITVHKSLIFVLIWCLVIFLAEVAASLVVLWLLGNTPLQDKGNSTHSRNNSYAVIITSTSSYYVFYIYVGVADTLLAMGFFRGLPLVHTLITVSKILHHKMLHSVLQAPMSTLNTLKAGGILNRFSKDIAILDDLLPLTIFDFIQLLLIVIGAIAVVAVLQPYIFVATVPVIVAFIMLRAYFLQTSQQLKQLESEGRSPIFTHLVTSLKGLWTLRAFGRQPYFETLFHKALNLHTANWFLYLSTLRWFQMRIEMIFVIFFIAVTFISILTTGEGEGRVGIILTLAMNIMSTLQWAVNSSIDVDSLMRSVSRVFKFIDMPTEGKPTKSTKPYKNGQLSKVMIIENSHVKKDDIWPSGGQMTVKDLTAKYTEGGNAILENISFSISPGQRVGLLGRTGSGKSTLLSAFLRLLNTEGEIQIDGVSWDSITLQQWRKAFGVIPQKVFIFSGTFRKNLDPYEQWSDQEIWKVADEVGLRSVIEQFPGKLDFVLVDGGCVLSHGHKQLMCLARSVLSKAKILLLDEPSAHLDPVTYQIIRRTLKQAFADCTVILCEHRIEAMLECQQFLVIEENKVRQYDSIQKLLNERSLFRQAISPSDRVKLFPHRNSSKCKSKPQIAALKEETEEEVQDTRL
pEC50: −log10 of the molar value.

Ask | Using the record for CC(C)(CNC(=O)OCC1CCOC1)c1ccc(NC(=O)c2c[nH]c3ccccc3c2=O)cc1 (centres unmarked) [Compound 396] , report its pEC50.
Reply | 4.60 to 5.00

Ask | So what's the measured pEC50 for this one? CC(C)(C)c1ccc(NC(=O)c2c[nH]c3ccccc3c2=O)cc1S(N)(=O)=O [Compound 268]
Reply | 4.60 to 5.00

Ask | Which pEC50 is listed for CCC(C)c1ccc(NC(=O)c2c[nH]c3ccccc3c2=O)cc1 (centres unmarked) [Compound 310] ?
Reply | > 5.00

Ask | Consider the compound shown here: CC1(c2ccc(NC(=O)c3c[nH]c4ccc(F)cc4c3=O)cc2)COC1 [Compound 521] What is its recorded pEC50?
Reply | > 5.00

Ask | For the compound Cc1cccc(Oc2ncccc2NC(=O)c2c[nH]c3ccccc3c2=O)c1C [Compound 206] , what pEC50 is on record?
Reply | > 5.00

###

target: ΔF508-CFTR (Homo sapiens, UniProt P13569, DEL508-508); assay: Membrane potential optical (FRET/VIPR) assay, identification of potentiator compounds; details: Table 3; assay not given
Parameter: EC50

As a guide, the following entries are already answered.
Compound	EC50
CC(C)(CO)c1ccc(NC(=O)c2c[nH]c3ccccc3c2=O)cc1	10 to 25 µM
O=C(Nc1cccc(Cc2ccccc2)c1)c1c[nH]c2ccccc2c1=O	< 10 µM
CC(C)c1ccc(NC(=O)c2c[nH]c3ccccc3c2=O)cn1	< 10 µM
CC(C)c1ccc(NC(=O)c2c[nH]c3ccc(Cl)cc3c2=O)c(C(F)(F)F)c1	< 10 µM
CC1(C)CCOc2cc(NC(=O)c3c[nH]c4ccccc4c3=O)ccc21	< 10 µM

Ask | For the compound shown here, CC(C)CNC(=O)c1cc2cc[nH]c2cc1NC(=O)c1c[nH]c2ccccc2c1=O , give the reported EC50.
Reply | 10 to 25 µM

Ask | // returns reported EC50 for input Nc1cc(NC(=O)c2c[nH]c3ccccc3c2=O)ccc1Cl
Reply | < 10 µM

Ask | Quick one: EC50 for CCOc1ccccc1-c1ccc(CNC(=O)OC(C)(C)C)cc1NC(=O)c1c[nH]c2ccccc2c1=O ?
Reply | < 10 µM

Ask | What value of EC50 has been reported for the following compound? CC(=O)c1ccccc1NC(=O)c1c[nH]c2ccccc2c1=O
Reply | 10 to 25 µM

###

// values below are reported pEC50
biological target: ΔF508-CFTR (Homo sapiens, UniProt P13569, DEL508-508); experiment: Membrane potential optical (FRET/VIPR) assay, identification of potentiator compounds; settings: Table 3; assay not given
pEC50: −log10 of the molar value.

Smiles Record	Test System	pEC50
CCOC(=O)Nc1cc(NC(=O)c2c[nH]c3ccccc3c2=O)ccc1C	ΔF508-CFTR (Homo sapiens, UniProt P13569, DEL508-508)	4.60 to 5.00

Ask | Suppose we examine the compound O=C(Nc1cc(N2CCCC2)cc(C(F)(F)F)c1)c1c[nH]c2ccccc2c1=O ; what pEC50 value has been reported?
Reply | > 5.00

Ask | GET /values?readout=pEC50&item= CC(C)(C)c1cc(C(C)(C)C)c(C(F)F)cc1NC(=O)c1c[nH]c2ccccc2c1=O
Reply | > 5.00

Ask | Reported pEC50, compound CC1(C)CCCN(c2ccc(NC(=O)c3c[nH]c4ccccc4c3=O)c(C(F)(F)F)c2)C1 : ____
Reply | > 5.00

Data provenance: patent US8614327B2
